- Tested on: LoVo
- MEASUREMENT PROTOCOL: Cytotoxicity against human doxorubicin resistant LoVo cells after 48 hrs by SRB assay
- Type: functional
TEST READOUT: GI50
Phrase the answer as number then unit, nothing more needed.

Examples with their reported GI50 follow.
[[record]]
compound = "C/C=C1\\NC(=O)[C@H](Cc2ccccc2)NC(=O)[C@@H](C(C)C)NC(=O)[C@@H]([C@H](C)CC)NC(=O)[C@H](NC(=O)[C@H](NC(=O)[C@H](CCCN)NC(=O)[C@H]2CCCN2C(=O)[C@H](NC(=O)[C@@H](NC(=O)[C@@H]2CCCN2C(=O)[C@H](NC(=O)CCCC(C)C)C(C)C)C(C)C)C(C)C)[C@H](C)CC)[C@H](C)OC(=O)[C@H](C(C)C)NC1=O"
reported_measurement = "2860 nM"

[[record]]
compound = "C/C=C1\\NC(=O)[C@H](Cc2ccccc2)NC(=O)[C@@H](C(C)C)NC(=O)[C@@H]([C@H](C)CC)NC(=O)[C@H](NC(=O)[C@H](NC(=O)[C@H](CCCN)NC(=O)[C@H]2CCCN2C(=O)[C@H](NC(=O)[C@@H](NC(=O)[C@@H](NC(=O)[C@H](NC(=O)CCCC(C)C)C(C)C)[C@@H](C)O)C(C)C)C(C)C)[C@H](C)CC)[C@H](C)OC(=O)[C@H](C(C)C)NC1=O [KAHALALIDE F]"
reported_measurement = "299 nM"


Ask: Give the value of GI50 reported for the following: C/C=C1\NC(=O)[C@H](Cc2ccccc2)NC(=O)[C@@H](C(C)C)NC(=O)[C@@H]([C@H](C)CC)NC(=O)[C@H](NC(=O)[C@H](NC(=O)[C@H](CCCN)NC(=O)[C@H]2CCCN2C(=O)[C@H](NC(=O)[C@@H](NC(=O)[C@@H](NC(=O)[C@H]2CCCN2C(=O)CCCC(C)C)[C@@H](C)O)C(C)C)C(C)C)[C@H](C)CC)[C@H](C)OC(=O)[C@H](C(C)C)NC1=O
Result: 3510 nM
